Entries and their activity at 8.33 µM
test system: HRV1A; test: microbe, parasite or virus in culture; settings: Human rhinovirus sp., M-HeLa, 7 h, read-out: HRV1A infection (dsRNA), 8.33 µM
measurement.label: activity at 8.33 µM (%)

- COC(=O)c1ccc(Cl)c(NC(=O)c2ccccc2OC)c1: 73
- CCOc1ccccc1C(=O)Nc1ccc([N+](=O)[O-])cc1Cl: 95
- CS(=O)(=O)c1ccc(NC(=O)c2cc(Cl)ccc2O)c(Cl)c1: 111
- COc1c(C)cccc1C(=O)Nc1ccc([N+](=O)[O-])cc1Cl: 94
- O=C(Nc1ccc([N+](=O)[O-])cc1Cl)c1ccccc1O: 5
- Nc1ccc(NC(=O)c2cc(Cl)ccc2O)c(Cl)c1: 96
- CCC(=O)Nc1ccc(Cl)c(NC(=O)c2ccccc2OC)c1: 107
- O=C(Nc1ccc([N+](=O)[O-])cc1Cl)c1cc(Cl)cc(Cl)c1O: 17
- COc1ccccc1C(=O)Nc1ccc(C(F)(F)F)cc1Cl: 108
- O=C(Nc1ccc(NS(=O)(=O)c2ccccc2)cc1Cl)c1cc(Cl)ccc1O: 105
- O=C(Nc1ccc([N+](=O)[O-])cc1Cl)c1cc(Cl)ccc1O [niclosamide, reference compound]: 5
- COc1ccccc1C(=O)Nc1ccc([N+](=O)[O-])cc1Cl: 157
- CCOc1ccccc1C(=O)Nc1ccc(Cl)cc1Cl: 106
- O=C(Nc1ccc([N+](=O)[O-])cc1Cl)c1cc(Cl)ccc1OCCOc1ccccc1: 47
- COc1ccc(Br)cc1C(=O)Nc1cc([N+](=O)[O-])ccc1Cl: 111
- COc1ccc(Cl)cc1C(=O)Nc1cc([N+](=O)[O-])ccc1Cl: 105

---

test system: HRV1A; settings: 0.9 µM; n=2
measurement.label: relative infection

- O=C(Nc1ccc([N+](=O)[O-])cc1Cl)c1cc(Cl)cc(Cl)c1O [TVB-1326]: 0.84
- O=C(Nc1ccc([N+](=O)[O-])cc1Cl)c1cc(Cl)ccc1OCCOc1ccccc1 [TVB-1329]: 1.10
- CS(=O)(=O)c1ccc(NC(=O)c2cc(Cl)ccc2O)c(Cl)c1 [TVB-1338]: 1.07
- O=C(Nc1ccc([N+](=O)[O-])cc1Cl)c1ccccc1O [TVB-1332]: 0.97

---

test system: CVB3; settings: 0.1 µM; n=2
measurement.label: relative infection

* O=C(Nc1ccc([N+](=O)[O-])cc1Cl)c1cc(Cl)ccc1OCCOc1ccccc1 [TVB-1329] | 0.97
* CS(=O)(=O)c1ccc(NC(=O)c2cc(Cl)ccc2O)c(Cl)c1 [TVB-1338] | 0.97
* O=C(Nc1ccc([N+](=O)[O-])cc1Cl)c1ccccc1O [TVB-1332] | 1.01
* O=C(Nc1ccc([N+](=O)[O-])cc1Cl)c1cc(Cl)cc(Cl)c1O [TVB-1326] | 1.05

---

test system: HRV1A; assay: microbe, parasite or virus in culture; conditions: Human rhinovirus sp., M-HeLa, 7 h, read-out: HRV1A infection (dsRNA), 0.10 µM
measurement.label: activity at 0.1 µM (%)

* CCOc1ccccc1C(=O)Nc1ccc([N+](=O)[O-])cc1Cl | 90
* COc1ccccc1C(=O)Nc1ccc([N+](=O)[O-])cc1Cl | 99
* COc1ccccc1C(=O)Nc1ccc(C(F)(F)F)cc1Cl | 95
* O=C(Nc1ccc(NS(=O)(=O)c2ccccc2)cc1Cl)c1cc(Cl)ccc1O | 97
* COc1ccc(Br)cc1C(=O)Nc1cc([N+](=O)[O-])ccc1Cl | 104
* O=C(Nc1ccc([N+](=O)[O-])cc1Cl)c1cc(Cl)ccc1OCCOc1ccccc1 | 112
* O=C(Nc1ccc([N+](=O)[O-])cc1Cl)c1cc(Cl)ccc1O [niclosamide, reference compound] | 96
* CCC(=O)Nc1ccc(Cl)c(NC(=O)c2ccccc2OC)c1 | 118
* COc1ccc(Cl)cc1C(=O)Nc1cc([N+](=O)[O-])ccc1Cl | 103
* CCOc1ccccc1C(=O)Nc1ccc(Cl)cc1Cl | 118
* O=C(Nc1ccc([N+](=O)[O-])cc1Cl)c1cc(Cl)cc(Cl)c1O | 85
* CS(=O)(=O)c1ccc(NC(=O)c2cc(Cl)ccc2O)c(Cl)c1 | 106
* COC(=O)c1ccc(Cl)c(NC(=O)c2ccccc2OC)c1 | 97
* O=C(Nc1ccc([N+](=O)[O-])cc1Cl)c1ccccc1O | 98
* Nc1ccc(NC(=O)c2cc(Cl)ccc2O)c(Cl)c1 | 102
* COc1c(C)cccc1C(=O)Nc1ccc([N+](=O)[O-])cc1Cl | 105

---

Entries and their IC50
system: HRV1A; assay: microbe, parasite or virus in culture; conditions: Human rhinovirus sp., HeLa, read-out: IC50 (HRV1A)
measurement.label: IC50 (µM)

• O=C(Nc1ccc([N+](=O)[O-])cc1Cl)c1cc(Cl)cc(Cl)c1O = 3.36
• O=C(Nc1ccc([N+](=O)[O-])cc1Cl)c1ccccc1O = 3.19
• O=C(Nc1ccc([N+](=O)[O-])cc1Cl)c1cc(Cl)ccc1OCCOc1ccccc1 = 9.34
• O=C(Nc1ccc([N+](=O)[O-])cc1Cl)c1cc(Cl)ccc1O [niclosamide, reference compound] = 1.04

---

test system: CVB3; test: microbe, parasite or virus in culture; conditions: Enterovirus B, CVB3, HeLa, read-out: IC50 (CVB3)
measurement.label: IC50

- O=C(Nc1ccc([N+](=O)[O-])cc1Cl)c1cc(Cl)ccc1O [niclosamide, reference compound]: > 50 µM

---

Entries and their relative infection
test system: HRV1A; conditions: 0.1 µM; n=2
measurement.label: relative infection

- CS(=O)(=O)c1ccc(NC(=O)c2cc(Cl)ccc2O)c(Cl)c1: 1.02
- O=C(Nc1ccc([N+](=O)[O-])cc1Cl)c1cc(Cl)ccc1OCCOc1ccccc1: 1.00
- O=C(Nc1ccc([N+](=O)[O-])cc1Cl)c1cc(Cl)cc(Cl)c1O: 0.93
- O=C(Nc1ccc([N+](=O)[O-])cc1Cl)c1ccccc1O: 0.99
